experiment.notes: Concentration in tissue (human, oral administration): epithelial lining fluid, alveolar macrophages, plasma
Format: in vivo
measurement.setup: male, epithelial lining fluid, oral single dose 75 mg, 1 hr, read-out: TISSUE DISTRIBUTION RATIO, ALVEOLAR EPITHELIAL LINING FLUID
readout.label: Kp at 1 h
// no unit string in output, number only

Lookup: Dear colleague, I am looking for the recorded Kp at 1 h of the following compound: COc1c(N2C[C@H](CNC3CC3)[C@H](F)C2)c(F)cc2c(=O)c(C(=O)O)cn(CCF)c12.Cl [Compound D, hydrochloride]
Found: 22.5

----------
experiment.notes: Concentration in tissue (human, oral administration): epithelial lining fluid, alveolar macrophages, plasma
Format: in vivo
measurement.setup: male, alveolar macrophages, oral single dose 75 mg, 6 hr, read-out: TISSUE DISTRIBUTION RATIO, ALVEOLAR MACROPHAGES
readout.label: Kp at 6 h
// no unit string in output, number only

Lookup: Dear colleague, I am looking for the recorded Kp at 6 h of the following compound: COc1c(N2C[C@H](CNC3CC3)[C@H](F)C2)c(F)cc2c(=O)c(C(=O)O)cn(CCF)c12.Cl [Compound D, hydrochloride]
Found: 56.4

----------
experiment.notes: AUC and Cmax, plasma concentration by HPLC after repeated oral doses
Assay type: in vivo
measurement.setup: male, human; Japanese healthy adult males, oral 75 mg once daily for seven days, day 7, plasma; read-out: maximum drug concentration (Cmax)
readout.label: Cmax (ng/mL)
Write the value in ng/mL as a bare number.

Lookup: Dear colleague, I am looking for the recorded Cmax of the following molecule: COc1c(N2C[C@H](CNC3CC3)[C@H](F)C2)c(F)cc2c(=O)c(C(=O)O)cn(CCF)c12.Cl [Compound D]
Found: 998

----------
Tested on: E. coli ATCC25922
experiment.notes: microbe, parasite or virus in culture
Format: cell-based
measurement.setup: Escherichia coli
readout.label: MIC (µg/mL)
Write the value in µg/mL as a bare number.

# annotated cases, reported MIC shown
[
  {
    "smiles.input": "C[C@H]1NCc2cc(-c3ccc4c(=O)c(C(=O)O)cn(C5CC5)c4c3OC(F)F)ccc21",
    "MIC / µg/mL": 0.03
  },
  {
    "smiles.input": "O=C(O)c1cn(C2CC2)c2cc(N3CCNCC3)c(F)cc2c1=O",
    "MIC / µg/mL": 0.008
  },
  {
    "smiles.input": "C[C@H]1COc2c(N3CCN(C)CC3)c(F)cc3c(=O)c(C(=O)O)cn1c23",
    "MIC / µg/mL": 0.015
  }
]

Lookup: Recall the recorded MIC for `COc1c(N2C[C@H](CNC3CC3)[C@H](F)C2)c(F)cc2c(=O)c(C(=O)O)cn(CCF)c12.Cl` with E. coli ATCC25922 and state it.
Found: 0.06

----------
experimental.system: QUINOLONE RESISTANT DNA gyrase (quinolone-resistant S. aureus) (Staphylococcus aureus, UniProt P20831)
experiment.notes: Enzyme inhibitory activity, supercoiling of relaxed pBR322
Assay type: biochemical
measurement.setup: read-out: IC50 VALUE, QUINOLONE RESISTANT DNA gyrase, average of three or average ± SD
readout.label: IC50 (µM)
Write the value in µM as a bare number.

Lookup: Dear colleague, I am looking for the recorded IC50 of the following compound: COc1c(N2C[C@H](CNC3CC3)[C@H](F)C2)c(F)cc2c(=O)c(C(=O)O)cn(CCF)c12.Cl [Compound D, hydrochloride]
Found: 35.7

----------
experiment.notes: Concentration in tissue (human, oral administration): epithelial lining fluid, alveolar macrophages, plasma
Assay type: in vivo
measurement.setup: male, epithelial lining fluid, oral single dose 75 mg, over 1 to 24 hours, read-out: tissue distribution ratio in epithelial lining fluid, range
readout.label: Kp

Lookup: Dear colleague, I am looking for the recorded Kp of the following compound: COc1c(N2C[C@H](CNC3CC3)[C@H](F)C2)c(F)cc2c(=O)c(C(=O)O)cn(CCF)c12.Cl [Compound D, hydrochloride]
Found: 15 to 22.5

----------
Below, each entry is listed alongside its reported FREQUENCY OF DEVELOPMENT OF RESISTANT BACTERIA (AVERAGE OF TWO MEASURED VALUES).
Test system: S. pneumoniae ATCC49619
experiment.notes: Frequency of development of resistant bacteria
Assay type: cell-based, Streptococcus pneumoniae
measurement.setup: S. pneumoniae ATCC49619, 8 × MIC, about 70 hours

[
  {
    "smiles.input": "C[C@H]1COc2c(N3CCN(C)CC3)c(F)cc3c(=O)c(C(=O)O)cn1c23",
    "assay.value": "<1.1 × 10^−8"
  },
  {
    "smiles.input": "O=C(O)c1cn(C2CC2)c2cc(N3CCNCC3)c(F)cc2c1=O",
    "assay.value": "<1.1 × 10^−8"
  },
  {
    "smiles.input": "COc1c(N2C[C@H](CNC3CC3)[C@H](F)C2)c(F)cc2c(=O)c(C(=O)O)cn(CCF)c12.Cl",
    "assay.value": "<1.1 × 10^−8"
  }
]

Next, consider the following compound.
Lookup: Recall the recorded FREQUENCY OF DEVELOPMENT OF RESISTANT BACTERIA (AVERAGE OF TWO MEASURED VALUES) for `C[C@H]1NCc2cc(-c3ccc4c(=O)c(C(=O)O)cn(C5CC5)c4c3OC(F)F)ccc21` with S. pneumoniae ATCC49619 and state it.
Found: <1.1 × 10^−8

----------
experiment.notes: AUC and Cmax, plasma concentration by HPLC after repeated oral doses
Format: in vivo
measurement.setup: male, human; Japanese healthy adult males, oral 75 mg once daily for seven days, day 7, plasma; read-out: area under the curve (AUC)
readout.label: AUC (ng·h/mL)
Write the value in ng·h/mL as a bare number.

Lookup: Dear colleague, I am looking for the recorded AUC of the following compound: `COc1c(N2C[C@H](CNC3CC3)[C@H](F)C2)c(F)cc2c(=O)c(C(=O)O)cn(CCF)c12.Cl`
Found: 20600
